# Test system: HEK293
# procedure-text: Cytotoxic Profiling of Annotated Libraries Using Quantitative High-Throughput Screening (AID 1296008); further: on the % scale 0 is the no-effect control and ±100 the full control effect; nearly all actives have a fitted effect of over 60% in size
# assay-conditions: Five cell lines viability, CellTiter-Glo ATP luminescence, 48-72 h; stronger effect = lower value
Inconclusive results are not listed. Activity calls are given as the source filed them. The call rests on the fitted dose curve; in most records, active means well fitted inhibition curve with a large enough effect; inconclusive means small, poorly fitted or top-dose-only effect; inactive means flat fitted curve, though single readings scatter.
property: max response

Query :: Complete the entry with the larger response for O=C1CC2(CCCC2)[C@H](O)C(=O)N1CCCCN1CCN(c2ncccn2)CC1
Result :: -2.49% (inactive)

Query :: Complete the entry with the larger response for CC(=O)c1c(O)cc(O[C@@H]2O[C@H](CO)[C@@H](O)[C@H](O)[C@H]2O)cc1O
Result :: 1.76% (inactive)

Query :: Complete the entry with the larger response for O=C(CN1C(=O)C2(CCCC2)NCC1c1cc(F)cc(F)c1)Nc1ccc2c(c1)CC1(C2)C(=O)Nc2ncccc21 (centres undefined)
Result :: -6.98% (inactive)

Query :: Complete the entry with the larger response for CC1=CC(=O)[C@H]2C(C)(C)CCC[C@]2(C)[C@@]1(O)CO
Result :: -15.2% (inactive)

Query :: Complete the entry with the larger response for O=C(O)CC1CCC(c2ccc(-c3ccc4nc(C(=O)NCc5ccc(OC(F)(F)F)cc5)cn4c3)cc2)CC1 (centres undefined)
Result :: -9.35% (inactive)

Query :: Complete the entry with the larger response for CC1=C2C(O)C(=O)OC(c3ccoc3)C2(C)CCC1O (centres undefined)
Result :: -2.84% (inactive)

Query :: Complete the entry with the larger response for CC(O)/C=C/C1C(C)C(O[C@@H]2O[C@H](CO)[C@@H](O)[C@H](O)[C@H]2O)C(O)CC1(C)C (some centres undefined)
Result :: -16.1% (inactive)

Query :: Complete the entry with the larger response for C=C(CO)C12OC1C1(C)C(=CC2=O)C(O)C(O)CC1C (centres undefined)
Result :: -0.602% (inactive)

Query :: Complete the entry with the larger response for C=C1[C@H](OC(C)=O)[C@H]2[C@@H](OC(C)=O)[C@](C)(OC(C)=O)C[C@]2(OC(C)=O)C(=O)[C@H](C)/C=C/C(C)(C)C(=O)[C@H](OC(=O)C(C)CC)[C@H]1OC(C)=O (some centres undefined)
Result :: 1.43% (inactive)

Query :: Complete the entry with the larger response for CC(=O)C1=C(C)N(c2cccc(C(F)(F)F)c2)C(=O)N[C@H]1c1ccc(C#N)nc1
Result :: -4.03% (inactive)

Query :: Complete the entry with the larger response for C[C@H]1CC[C@@H]2N(C1)C[C@@H]1[C@H]([C@@H](O)[C@H](O)[C@]3(O)[C@H]1C[C@@]14OC5(O)[C@@H](C[C@@H](O)[C@@H]31)[C@]4(C)CC[C@@H]5O)[C@]2(C)O
Result :: -8.96% (inactive)

Query :: Complete the entry with the larger response for Cc1cc(C(N)=O)ccc1-n1c(CCC(=O)O)ccc1-c1ccc(-n2ccnc2)cc1
Result :: -3.97% (inactive)

Query :: Complete the entry with the larger response for CC(=O)O[C@H]1[C@H](O[C@H]2[C@@H]3C=CO[C@@H](O[C@@H]4O[C@H](CO)[C@@H](O)[C@H](O)[C@H]4O)[C@@H]3[C@@]3(CO)O[C@@H]23)O[C@@H](C)[C@H](OC(=O)/C=C/c2ccccc2)[C@H]1OC(=O)/C=C/c1ccccc1
Result :: -0.402% (inactive)

Query :: Complete the entry with the larger response for CC(C)CC(=O)O[C@@H]1OC=C(CO[C@@H]2O[C@H](CO)[C@@H](O)[C@H](O)[C@H]2O)[C@H]2[C@@H]3O[C@H]3[C@@](O)(CO)[C@@H]12
Result :: -8.14% (inactive)

Query :: Complete the entry with the larger response for N#Cc1cc(F)cc(-c2nc(-c3ccccn3)no2)c1
Result :: -8.23% (inactive)

Query :: Complete the entry with the larger response for c1ccc(N2CCN(CCc3nn[nH]n3)CC2)cc1
Result :: -5.85% (inactive)

Query :: Complete the entry with the larger response for CCCOc1ccc(-c2nc(OC)c3ccccc3n2)cc1
Result :: 4.19% (inactive)

Query :: Complete the entry with the larger response for Cc1cc(Cl)ccc1COc1ccnn1-c1cc(C(=O)O)ccn1
Result :: -13.3% (inactive)

Query :: Complete the entry with the larger response for C=C1C(OC2OCC(O)C(O)C2O)CC2C(C)(C)C(O)CCC2(C)C1CC/C(C)=C\CO (centres undefined)
Result :: -24.4% (inactive)

Query :: Complete the entry with the larger response for COC(=O)C(C)C1CCC2(C)C(=O)C=CC(C)(O)C2C1O (centres undefined)
Result :: -6.36% (inactive)

Query :: Complete the entry with the larger response for CC1(C)CCCC2(C)C(CO)C(CO)=CCC12 (centres undefined)
Result :: -4.79% (inactive)

Query :: Complete the entry with the larger response for COC(=O)C1=CO[C@@H](O[C@@H]2O[C@H](CO)[C@@H](O)[C@H](O)[C@H]2O)[C@H]2[C@@H]1CC(OC)O[C@@H]2C (some centres undefined)
Result :: 4.51% (inactive)

Query :: Complete the entry with the larger response for O=[N+]([O-])c1cn2c(n1)OCC(OCc1ccc(OC(F)(F)F)cc1)C2 (centres undefined)
Result :: -14.5% (inactive)

Query :: Complete the entry with the larger response for C/C=C/C=C/C=C/C(=O)OC1C=C(C=O)C(O)(C(=O)O)C2(C)CCCC(C)(C)C12 (centres undefined)
Result :: 1.26% (inactive)

Query :: Complete the entry with the larger response for CC(C)c1ccc2c(c1)C(=O)CC1[C@@](C)(C(=O)O)CCC[C@]21C (some centres undefined)
Result :: 3.51% (inactive)

Query :: Complete the entry with the larger response for CCOCc1nc2c(N)nc3ccccc3c2n1CC(C)(C)O
Result :: -5.94% (inactive)

Query :: Complete the entry with the larger response for CC(C)(C)C(=O)CN1C(=O)[C@H](NC(=O)Nc2cccc(C(=O)O)c2)CN(C2CCCCC2)c2ccccc21
Result :: 1.37% (inactive)

Query :: Complete the entry with the larger response for CC1OC(OC2C(C)OC(OC3C(O)C(CO)OC(O[C@H]4CC[C@@]5(C)C(CC[C@]6(C)C5CC=C5C7[C@@H](C)[C@H](C)CC[C@]7(C(=O)O)CC[C@]56C(=O)O)C4(C)C)C3O)C(O)C2O)C(O)C(O)C1O (some centres undefined)
Result :: -6.08% (inactive)

Query :: Complete the entry with the larger response for COc1ccc(CCC(=O)c2c(O)cc(O)cc2O[C@@H]2O[C@H](CO)[C@@H](O)[C@H](O)[C@H]2O)cc1
Result :: -3.22% (inactive)

Query :: Complete the entry with the larger response for C[C@@H]1C[C@@H](O)[C@@]23CO[C@@H](O)[C@@H]2CCC[C@@H]3[C@@]12C[C@@H](c1ccoc1)OC2=O
Result :: -9.22% (inactive)

Query :: Complete the entry with the larger response for Cc1cc(C)c2c(N)c(C(=O)NCc3ccc(Cl)cc3)sc2n1
Result :: -96.1% (inactive)

Query :: Complete the entry with the larger response for COCCOc1ccc(N2CCN(CCn3ncc4c3nc(N)n3nc(-c5ccco5)nc43)CC2)cc1
Result :: -9.01% (inactive)

Query :: Complete the entry with the larger response for COC(=O)C1=CO[C@@H](O[C@@H]2O[C@H](CO)[C@@H](O)[C@H](O)[C@H]2O)[C@H]2[C@@H]1C=C[C@@]21C=C([C@H](C)O)C(=O)O1
Result :: -5.88% (inactive)

Query :: Complete the entry with the larger response for CC1(C(=O)O)CCCC2(C)C3=CCC4CC3(CCC12)CC4CO (centres undefined)
Result :: -3.78% (inactive)

FYI, the data here is from PubChem BioAssay (NCATS).
